Tested on: ovarian adenocarcinoma cell line SKOV-3
Assay Name: Proliferation test (cellular dehydrogenase activity), SK-OV-3
Type: cell-based
Assay Setup: Homo sapiens
Measurement Type: EC50 (µg/mL)
Quick reminder: number only, in µg/mL, skip the unit.

Given COc1csc(C(=O)C=C2c3ccccc3C(=O)c3ccccc32)c1 [Compound 2] , state its recorded EC50.
0.416

Given O=C(C=C1c2ccccc2C(=O)c2ccccc21)c1cccc(O)c1 [Compound 12] , state its recorded EC50.
3.03

Given COc1ccc(C(=O)C=C2c3ccccc3C(=O)c3ccccc32)cc1 [Compound 7] , state its recorded EC50.
0.02

Given COc1ccc(C(=O)C=C2c3ccccc3C(O)c3ccccc32)cc1 (stereo not drawn) [Compound 4] , state its recorded EC50.
0.171

Given O=C(C=C1c2ccccc2C(=O)c2ccccc21)c1ccc(O)c(O)c1 [Compound 1] , state its recorded EC50.
0.053

Given Cc1ccc(C(=O)C=C2c3ccccc3C(=O)c3ccccc32)cc1 [Compound 9] , state its recorded EC50.
0.13
